The measurements presented in this section are drawn from patent US8829011B2.

target: human recombinant 5-HT2A receptor (Homo sapiens, UniProt P28223); construct: expressed in transfected cells; host or cells: NIH3T3; assay: Affinity for 5-HT2A receptor binding sites (competitive radioligand binding, [3H]ketanserin); conditions: membranes of NIH3T3 with h5-HT2A, * = tested as hydrochloride salt
Sequence (P28223 whole entry): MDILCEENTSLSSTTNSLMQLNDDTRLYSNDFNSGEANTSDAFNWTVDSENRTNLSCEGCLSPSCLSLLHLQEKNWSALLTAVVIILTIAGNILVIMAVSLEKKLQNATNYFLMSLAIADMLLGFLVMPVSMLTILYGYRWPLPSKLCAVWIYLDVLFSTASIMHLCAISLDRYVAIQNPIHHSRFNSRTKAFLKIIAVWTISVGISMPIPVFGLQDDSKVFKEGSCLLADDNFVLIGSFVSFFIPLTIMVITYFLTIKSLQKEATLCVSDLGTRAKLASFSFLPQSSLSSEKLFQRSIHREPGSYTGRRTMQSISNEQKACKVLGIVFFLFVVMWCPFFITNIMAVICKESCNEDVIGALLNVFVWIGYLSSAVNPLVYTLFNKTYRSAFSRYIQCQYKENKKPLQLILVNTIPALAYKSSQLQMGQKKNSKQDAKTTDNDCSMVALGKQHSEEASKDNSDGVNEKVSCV
Structures can show the parent of a compound that is named as a salt.
MEASURED_PROPERTY: pKi
Lab note — pKi values are minus log10 of concentrations in M.

COMPOUND	pKi
Cc1ccc(-c2nc(N3CCOC[C@@H]3C)nc3c2CCNCC3)cc1Cl [Example 93]	6.82
CC(C)N(c1nc2c(c(-c3ccc(F)cc3)n1)CNCC2)C(C)C [Example 43, hydrochloride]	8.52
C[C@H]1COCCN1c1nc2c(c(-c3ccc(Cl)cc3)n1)CCNCC2 [Example 96]	7.00

Would you kindly look at the next entry?
Q: Consider the compound shown here: C[C@@H]1CCC[C@H](C)N1c1nc2c(c(-c3cnc4ccccc4c3)n1)CCNCC2 [Example 88] What is its recorded pKi?
A: 6.64

---

target: human recombinant 5-HT2A receptor (Homo sapiens); test: Affinity for 5-HT2A receptor binding sites (competitive radioligand binding, [3H]ketanserin); conditions: membranes of NIH3T3 with h5-HT2A, * = tested as hydrochloride salt
Counter-ions that a name gives are not always drawn.
In this section we review reported Ki values for a set of compounds.
Give just the number in nM; leave the unit off.

See these solved cases before continuing.
COMPOUND	MEASURED_PROPERTY	QUANTITATIVE_RESULT
Cc1ccc(-c2nc(N3[C@H](C)CCC[C@@H]3C)nc3c2CCNCC3)cc1Cl	Ki	39
CC(C)c1ccc(-c2nc(N3[C@H](C)CCC[C@@H]3C)nc3c2CCNCC3)cc1	Ki	160
COc1ccc(-c2nc(N3CCCCC3C)nc3c2CCCNC3)cc1 (centres unmarked) [Example 5, hydrochloride]	Ki	1500

Would you kindly look at the next entry?
Q: Consider the compound shown here: `COc1ccc(-c2nc(N3CCCCCC3)nc3c2CCNC3)cc1` What is its recorded Ki?
A: 160

---

Biological target: human recombinant 5-HT2C receptor (Homo sapiens, UniProt P28335)
Sequence (P28335 33-458): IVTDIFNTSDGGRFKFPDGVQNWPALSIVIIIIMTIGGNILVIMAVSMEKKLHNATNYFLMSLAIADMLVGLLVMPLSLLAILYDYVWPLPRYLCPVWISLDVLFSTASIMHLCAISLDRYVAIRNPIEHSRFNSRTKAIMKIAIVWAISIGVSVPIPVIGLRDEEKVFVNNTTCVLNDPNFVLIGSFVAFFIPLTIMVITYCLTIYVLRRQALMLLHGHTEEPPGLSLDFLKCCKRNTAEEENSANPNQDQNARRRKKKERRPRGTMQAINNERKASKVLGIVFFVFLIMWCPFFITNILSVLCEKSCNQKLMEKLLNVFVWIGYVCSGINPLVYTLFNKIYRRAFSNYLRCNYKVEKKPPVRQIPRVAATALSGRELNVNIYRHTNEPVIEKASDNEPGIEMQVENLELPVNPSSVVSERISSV
Test: Affinity for 5-HT2C receptor binding sites (competitive radioligand binding, [3H]mesulergine)
Settings: membranes of CHO with h5-HT2C, * = tested as hydrochloride salt
Description: Stock drug solutions (10 mM) were prepared in DMSO (the final assay concentration of DMSO not exceeding 0.4%). Drug dilutions were prepared in assay buffer. […] Receptor binding was performed using the human recombinant 5-HT2A (GB: X57830), 5-HT2B (GB: Z36748) and 5-HT2C (GB: M81778) receptors. The affinity of the compounds for the 3 different human 5-HT2 receptor subtypes was evaluated by competitive radioligand binding assays using [^3H]ketanserin (h5-HT2A) or [^3H]mesulergine (h5-HT2B and h5-HT2C). […]
pKi: −log10 of the molar value. Where a name gives a salt, the structure may show the parent alone.
pKi below 7 gives f; pKi at or above it gives t.

COMPOUND	CLASS_LABEL
CC1CCCCN1c1nc2c(c(-c3ccc(F)cc3)n1)CCCNC2 (stereo not drawn) [Example 6]	f
CCN(CC)c1nc2c(c(-c3ccc(F)cc3)n1)CCNCC2 [Example 9, hydrochloride]	t
Cc1ccc(-c2nc(N3CCC(F)CC3)nc3c2CCNCC3)cc1 [Example 69]	t
Cc1ccc(-c2nc(N3CCCCC3C)nc3c2CCCNC3)cc1 (stereo not drawn) [Example 8]	f
CCN(CC)c1nc2c(c(-c3ccsc3)n1)CCNCC2 [Example 12, hydrochloride]	t
Clc1ccc(-c2nc(N3CCOCC3)nc3c2CNCCC3)cc1 [Example 57]	f
C[C@@H]1CCC[C@H](C)N1c1nc2c(c(-c3cnc4ccccc4c3)n1)CCNCC2 [Example 88]	f
COc1ccc(-c2nc(N3[C@H](C)CCC[C@@H]3C)nc3c2CCNCC3)cc1 [Example 82]	t

Q: Is pKi for Cc1ccc(-c2nc(N3CCOC[C@H]3C)nc3c2CCNCC3)cc1 [Example 100] at or above 7?
A: t

Q: Is pKi for CCN(CC)c1nc2c(c(-c3ccc(F)cc3)n1)CCCNC2 [Example 1] at or above 7?
A: f

Q: Is pKi for Clc1ccc(-c2nc(NCc3ccccc3)nc3c2CCNCC3)cc1 [Example 56] at or above 7?
A: t

Q: Is pKi for Cc1ccc(-c2nc(N3CCS(=O)(=O)CC3)nc3c2CCNCC3)cc1 [Example 64] at or above 7?
A: f

Q: Is pKi for COc1ccc(-c2nc(N3CCCCCC3)nc3c2CCN(Cc2ccccc2)C3)cc1 [Example 35] at or above 7?
A: f

Q: Is pKi for Cc1ccc(-c2nc(N3CCCCC3)nc3c2CNCCC3)cc1 [Example 19] at or above 7?
A: f
